assay: Bioavailability in cannula implanted rat at 5 mg/kg administered through oral gavage after 24 hrs by LC-MS/MS analysis; type: ADME, organism-based; conditions: in vivo
measured endpoint: bioavailability (%)
Answers are plain numbers, in %.

Sample records with bioavailability:
INSERT INTO assay_data (sample_smiles, measured_endpoint, value_reported) VALUES
  ('C=C(C)[C@@H]1CC[C@]2(C(=O)NCCc3ccccn3)CC[C@]3(C)[C@H](CC[C@@H]4[C@@]5(C)CC=C(c6ccc(C(=O)O)cc6)C(C)(C)[C@@H]5CC[C@]43C)[C@@H]12', 'bioavailability', 3),
  ('C=C(C)[C@@H]1CC[C@]2(C(=O)NCCC(=O)O)CC[C@]3(C)[C@H](CC[C@@H]4[C@@]5(C)CC=C(c6ccc(C(=O)O)cc6)C(C)(C)[C@@H]5CC[C@]43C)[C@@H]12', 'bioavailability', 71),
  ('C=C(C)[C@@H]1CC[C@]2(C(=O)N(C)CCN(C)C)CC[C@]3(C)[C@H](CC[C@@H]4[C@@]5(C)CC=C(c6ccc(C(=O)O)cc6)C(C)(C)[C@@H]5CC[C@]43C)[C@@H]12', 'bioavailability', 11);

Hey, can you go through the list below and give me bioavailability for every item?
1. C=C(C)[C@@H]1CC[C@]2(C(=O)NCCN(C)C)CC[C@]3(C)[C@H](CC[C@@H]4[C@@]5(C)CC=C(c6ccc(C(=O)O)cc6)C(C)(C)[C@@H]5CC[C@]43C)[C@@H]12
2. C=C(C)[C@@H]1CC[C@]2(C(=O)O)CC[C@]3(C)[C@H](CC[C@@H]4[C@@]5(C)CC=C(c6ccc(C(=O)O)cc6)C(C)(C)[C@@H]5CC[C@]43C)[C@@H]12

1: 17; 2: 4

====

Record form. Attribute: half-life at 0.5 µM. Fill in for each entry.
test: Metabolic stability in human liver microsomes at 0.5 uM by LC-MS/MS analysis in presence of NADPH; format: ADME

Sample records with half-life at 0.5 µM:
INSERT INTO measurements (sample_smiles, measured_endpoint, value_reported) VALUES
  ('C=C(C)[C@@H]1CC[C@]2(C(=O)NCCc3ccccn3)CC[C@]3(C)[C@H](CC[C@@H]4[C@@]5(C)CC=C(c6ccc(C(=O)O)cc6)C(C)(C)[C@@H]5CC[C@]43C)[C@@H]12', 'half-life at 0.5 µM', '0.717 h'),
  ('C=C(C)[C@@H]1CC[C@]2(C(=O)NCCC(=O)O)CC[C@]3(C)[C@H](CC[C@@H]4[C@@]5(C)CC=C(c6ccc(C(=O)O)cc6)C(C)(C)[C@@H]5CC[C@]43C)[C@@H]12', 'half-life at 0.5 µM', '1.88 h'),
  ('C=C(C)[C@@H]1CC[C@]2(C(=O)N(C)CCN(C)C)CC[C@]3(C)[C@H](CC[C@@H]4[C@@]5(C)CC=C(c6ccc(C(=O)O)cc6)C(C)(C)[C@@H]5CC[C@]43C)[C@@H]12', 'half-life at 0.5 µM', '> 2 h');

Hey, can you go through the list below and give me half-life at 0.5 µM for every item?
1. C=C(C)[C@@H]1CC[C@]2(C(=O)NCCN(C(C)C)C(C)C)CC[C@]3(C)[C@H](CC[C@@H]4[C@@]5(C)CC=C(c6ccc(C(=O)O)cc6)C(C)(C)[C@@H]5CC[C@]43C)[C@@H]12
2. C=C(C)[C@@H]1CC[C@]2(C(=O)NCCN(C)C)CC[C@]3(C)[C@H](CC[C@@H]4[C@@]5(C)CC=C(c6ccc(C(=O)O)cc6)C(C)(C)[C@@H]5CC[C@]43C)[C@@H]12

["> 2 h", "> 2 h"]

Hey, can you go through the list below and give me half-life at 0.5 µM for every item?
1. C=C(C)[C@@H]1CC[C@]2(C(=O)NCCN(CC)CC(=O)O)CC[C@]3(C)[C@H](CC[C@@H]4[C@@]5(C)CC=C(c6ccc(C(=O)O)cc6)C(C)(C)[C@@H]5CC[C@]43C)[C@@H]12
2. C=C(C)[C@@H]1CC[C@]2(C(=O)NCCCN(C)C)CC[C@]3(C)[C@H](CC[C@@H]4[C@@]5(C)CC=C(c6ccc(C(=O)O)cc6)C(C)(C)[C@@H]5CC[C@]43C)[C@@H]12

["> 2 h", "> 2 h"]

====

assay: Cytotoxicity against human MT2 cells; format: cell-based
Record form. Attribute: CC50. Fill in for each entry.
Answers are plain numbers, in µM.

Sample records with CC50:
INSERT INTO results (sample_smiles, measured_endpoint, value_reported) VALUES
  ('C=C(C)[C@@H]1CC[C@]2(C(=O)NCCc3ccccn3)CC[C@]3(C)[C@H](CC[C@@H]4[C@@]5(C)CC=C(c6ccc(C(=O)O)cc6)C(C)(C)[C@@H]5CC[C@]43C)[C@@H]12', 'CC50', 8),
  ('C=C(C)[C@@H]1CC[C@]2(C(=O)NCC(N)=O)CC[C@]3(C)[C@H](CC[C@@H]4[C@@]5(C)CC=C(c6ccc(C(=O)O)cc6)C(C)(C)[C@@H]5CC[C@]43C)[C@@H]12', 'CC50', 9),
  ('C=C(C)[C@@H]1CC[C@]2(C(=O)NCc3ccccn3)CC[C@]3(C)[C@H](CC[C@@H]4[C@@]5(C)CC=C(c6ccc(C(=O)O)cc6)C(C)(C)[C@@H]5CC[C@]43C)[C@@H]12', 'CC50', 1),
  ('C=C(C)[C@@H]1CC[C@]2(C(=O)N(C)CCN(C)C)CC[C@]3(C)[C@H](CC[C@@H]4[C@@]5(C)CC=C(c6ccc(C(=O)O)cc6)C(C)(C)[C@@H]5CC[C@]43C)[C@@H]12', 'CC50', 3),
  ('C=C(C)[C@@H]1CC[C@]2(C(=O)NCC(C)(C)N)CC[C@]3(C)[C@H](CC[C@@H]4[C@@]5(C)CC=C(c6ccc(C(=O)O)cc6)C(C)(C)[C@@H]5CC[C@]43C)[C@@H]12', 'CC50', 20);

Hey, can you go through the list below and give me CC50 for every item?
1. C=C(C)[C@@H]1CC[C@]2(C(=O)N3CCCCC3)CC[C@]3(C)[C@H](CC[C@@H]4[C@@]5(C)CC=C(c6ccc(C(=O)O)cc6)C(C)(C)[C@@H]5CC[C@]43C)[C@@H]12
2. C=C(C)[C@@H]1CC[C@]2(C(=O)NS(C)(=O)=O)CC[C@]3(C)[C@H](CC[C@@H]4[C@@]5(C)CC=C(c6ccc(C(=O)O)cc6)C(C)(C)[C@@H]5CC[C@]43C)[C@@H]12
3. C=C(C)[C@@H]1CC[C@]2(C(=O)NCCC(=O)O)CC[C@]3(C)[C@H](CC[C@@H]4[C@@]5(C)CC=C(c6ccc(C(=O)O)cc6)C(C)(C)[C@@H]5CC[C@]43C)[C@@H]12
4. C=C(C)[C@@H]1CC[C@]2(C(=O)NCCNC(C)=O)CC[C@]3(C)[C@H](CC[C@@H]4[C@@]5(C)CC=C(c6ccc(C(=O)O)cc6)C(C)(C)[C@@H]5CC[C@]43C)[C@@H]12
5. C=C(C)[C@@H]1CC[C@]2(C(=O)NS(=O)(=O)C3CC3)CC[C@]3(C)[C@H](CC[C@@H]4[C@@]5(C)CC=C(c6ccc(C(=O)O)cc6)C(C)(C)[C@@H]5CC[C@]43C)[C@@H]12
6. C=C(C)[C@@H]1CC[C@]2(C(=O)NCc3nccs3)CC[C@]3(C)[C@H](CC[C@@H]4[C@@]5(C)CC=C(c6ccc(C(=O)O)cc6)C(C)(C)[C@@H]5CC[C@]43C)[C@@H]12

1. 0.2
2. 16
3. 36
4. 12
5. 18
6. 6

====

system: Human immunodeficiency virus 1; assay: Antiviral activity against wild type HIV1 NL4-3 infected in human MT2 cells after 4 to 5 days by dual-luciferase reporter gene assay; type: functional, organism-based; conditions: Human immunodeficiency virus 1, NL4-3, MT2
Record form. Attribute: EC50. Fill in for each entry.
One number for each entry, in nM.

Sample records with EC50:
INSERT INTO results (sample_smiles, value_unit, value_reported) VALUES
  ('C=C(C)[C@@H]1CC[C@]2(C(=O)NC)CC[C@]3(C)[C@H](CC[C@@H]4[C@@]5(C)CC=C(c6ccc(C(=O)O)cc6)C(C)(C)[C@@H]5CC[C@]43C)[C@@H]12', 'nM', 10),
  ('C=C(C)[C@@H]1CC[C@]2(C(=O)NCCN)CC[C@]3(C)[C@H](CC[C@@H]4[C@@]5(C)CC=C(c6ccc(C(=O)O)cc6)C(C)(C)[C@@H]5CC[C@]43C)[C@@H]12', 'nM', 3),
  ('C=C(C)[C@@H]1CC[C@]2(C(=O)NCCN3CCCCC3)CC[C@]3(C)[C@H](CC[C@@H]4[C@@]5(C)CC=C(c6ccc(C(=O)O)cc6)C(C)(C)[C@@H]5CC[C@]43C)[C@@H]12', 'nM', 7);

Continue with the compound presented below.
Which EC50 reading was recorded for the compound C=C(C)[C@@H]1CC[C@]2(C(=O)NCCOC)CC[C@]3(C)[C@H](CC[C@@H]4[C@@]5(C)CC=C(c6ccc(C(=O)O)cc6)C(C)(C)[C@@H]5CC[C@]43C)[C@@H]12 ?
17
